Target: μOR (Homo sapiens, UniProt P35372)
Construct: host or cells: CHO-K1
Experiment: cell-based
Assay type: cell-based
Details: read-out: μOR cAMP inhibition Emax ± SEM (%)
readout_type: Emax

{"columns": ["compound", "experimental_target", "readout_type", "measured_value"],
 "data": [
  ["CCC1CN2CCC34c5ccccc5NC3C(C(=O)OC)C1CC24 (stereo not drawn) [Compound 15, 2,16,19,20-tetrahydroakuammicine]", "μOR (Homo sapiens, UniProt P35372)", "Emax", "< 10%"]
]}

Q) Return Emax measured with μOR (Homo sapiens, UniProt P35372) given this compound: CC=C1CN2CCC34C(=C(C(=O)OC)C1CC23)Nc1ccc([N+](=O)[O-])cc14 (stereo not drawn)
A) < 10%

Q) Return Emax measured with μOR (Homo sapiens, UniProt P35372) given this compound: C/C=C1/C[N+]2(C)CC[C@]34C(=C(C(=O)OC)[C@H]1C[C@@H]32)Nc1ccccc14 (stereo partly drawn)
A) < 10%

---

Target: κOR (Homo sapiens)
readout_type: Ki (nM)
Expressed in nM, but write only the number.

Q) Return Ki measured with κOR (Homo sapiens) given this compound: `C/C=C1/CN2CC[C@]34C(=C(C(=O)OC)[C@H]1C[C@H]23)Nc1ccc(I)cc14`
A) 0.087

---

Target: UniProt P23975
Assay: PDSP radioligand displacement binding
Details: average of three independent trials
readout_type: Ki (nM)
Expressed in nM, but write only the number.

Q) Ki for `C/C=C1/CN2CC[C@]34C(=C(C(=O)OC)[C@H]1C[C@H]23)Nc1ccc(I)cc14` ?
A) 3440

---

Target: κOR (Homo sapiens, UniProt P41145)
Construct: host or cells: CHO-K1
Experiment: cell-based
Assay type: cell-based
Conditions: read-out: κOR cAMP inhibition Emax ± SEM (%)
Form field: Emax (one value per entry).

Below are worked cases with known answers.
{"columns": ["compound", "measured_value"],
 "data": [
  ["C/C=C1/C[N+]2(CCC)CC[C@]34C(=C(C(=O)OC)[C@H]1C[C@@H]32)Nc1ccccc14 (stereo partly drawn)", "< 10%"],
  ["C/C=C1/C[N+]2(Cc3ccccc3)CC[C@]34C(=C(C(=O)OC)[C@H]1C[C@@H]32)Nc1ccccc14 (stereo partly drawn)", "< 10%"]
]}

Switching to the query record.
Q) Emax for C/C=C1/CN2CC[C@]34c5ccccc5NC3C(C(=O)OC)[C@H]1C[C@H]24 (stereo partly drawn) [Compound 14, 2,16-dihydroakuammicine] ?
A) < 10%
